Exercise: state measured kinase still bound, per cent of control for each of the molecules provided.
# tgt: JAK3 JH1 catalytic (human)
# protocol_details: KINOMEscan competition binding
# run_parameters: compound 10.0 µM
# output: bare number, implied unit %

I am curious: what kinase still bound, per cent of control value has been reported for N#C/C(=C1/Nc2ccccc2S1)c1ccnc(NCCc2cccnc2)n1 ?
10

I am curious: what kinase still bound, per cent of control value has been reported for CCCS(=O)(=O)Nc1ccc(F)c(C(=O)c2c[nH]c3ncc(Cl)cc23)c1F ?
24

I am curious: what kinase still bound, per cent of control value has been reported for COc1cc(N2CCC(C(N)=O)CC2)ccc1Nc1nc(N)c(Cl)c(Nc2ccccc2S(=O)(=O)C(C)C)n1 ?
100

I am curious: what kinase still bound, per cent of control value has been reported for C=CC(=O)Nc1ccc(C(=O)c2sc(Nc3ccc(N4CCN(C)CC4)cc3OC)nc2N)cc1 ?
100

I am curious: what kinase still bound, per cent of control value has been reported for CCc1nc(-c2cccc(C)c2)c(-c2ccnc(NC(=O)c3ccccc3)c2)s1 ?
80

---

# tgt: NIM1 (human) (UniProt Q8IY84)
# Sequence (Q8IY84 whole entry, looked up): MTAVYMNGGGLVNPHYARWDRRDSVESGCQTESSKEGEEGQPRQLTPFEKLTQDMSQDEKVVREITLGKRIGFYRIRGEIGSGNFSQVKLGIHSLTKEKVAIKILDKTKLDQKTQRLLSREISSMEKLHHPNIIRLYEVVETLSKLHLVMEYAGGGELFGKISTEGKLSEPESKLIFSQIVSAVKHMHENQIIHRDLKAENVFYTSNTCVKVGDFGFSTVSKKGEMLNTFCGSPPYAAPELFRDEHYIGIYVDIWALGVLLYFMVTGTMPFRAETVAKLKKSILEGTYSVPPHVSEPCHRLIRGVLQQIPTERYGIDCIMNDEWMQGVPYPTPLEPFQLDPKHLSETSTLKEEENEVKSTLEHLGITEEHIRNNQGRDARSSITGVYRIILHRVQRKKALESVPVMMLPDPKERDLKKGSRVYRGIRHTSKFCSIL
# protocol_details: KINOMEscan competition binding
# run_parameters: compound 10.0 µM
Exercise: state measured kinase still bound, per cent of control for each of the molecules provided.

I am curious: what kinase still bound, per cent of control value has been reported for CNC(=O)Nc1ccc(-c2nc(N3CC4CCC(C3)O4)c3cnn(C4CCC5(CC4)OCCO5)c3n2)cc1 ?
100%

I am curious: what kinase still bound, per cent of control value has been reported for N#Cc1cc(-c2ccnc(Nc3ccc(-n4cnc(-c5cccnc5)n4)cc3)n2)cc(N2CCOCC2)c1 ?
58%

I am curious: what kinase still bound, per cent of control value has been reported for CCc1nc(-c2cccc(C)c2)c(-c2ccnc(NC(=O)c3ccccc3)c2)s1 ?
100%

I am curious: what kinase still bound, per cent of control value has been reported for CCN1CCN(Cc2ccc(NC(=O)c3ccc(C)c(/C=C/c4cnc5[nH]ccc5c4OC)c3)cc2C(F)(F)F)CC1 ?
100%

I am curious: what kinase still bound, per cent of control value has been reported for C=CC(=O)Nc1ccc(C(=O)c2sc(Nc3ccc(N4CCN(C)CC4)cc3OC)nc2N)cc1 ?
91%

---

# tgt: UniProt Q9UK32
# Sequence (Q9UK32 whole entry, looked up): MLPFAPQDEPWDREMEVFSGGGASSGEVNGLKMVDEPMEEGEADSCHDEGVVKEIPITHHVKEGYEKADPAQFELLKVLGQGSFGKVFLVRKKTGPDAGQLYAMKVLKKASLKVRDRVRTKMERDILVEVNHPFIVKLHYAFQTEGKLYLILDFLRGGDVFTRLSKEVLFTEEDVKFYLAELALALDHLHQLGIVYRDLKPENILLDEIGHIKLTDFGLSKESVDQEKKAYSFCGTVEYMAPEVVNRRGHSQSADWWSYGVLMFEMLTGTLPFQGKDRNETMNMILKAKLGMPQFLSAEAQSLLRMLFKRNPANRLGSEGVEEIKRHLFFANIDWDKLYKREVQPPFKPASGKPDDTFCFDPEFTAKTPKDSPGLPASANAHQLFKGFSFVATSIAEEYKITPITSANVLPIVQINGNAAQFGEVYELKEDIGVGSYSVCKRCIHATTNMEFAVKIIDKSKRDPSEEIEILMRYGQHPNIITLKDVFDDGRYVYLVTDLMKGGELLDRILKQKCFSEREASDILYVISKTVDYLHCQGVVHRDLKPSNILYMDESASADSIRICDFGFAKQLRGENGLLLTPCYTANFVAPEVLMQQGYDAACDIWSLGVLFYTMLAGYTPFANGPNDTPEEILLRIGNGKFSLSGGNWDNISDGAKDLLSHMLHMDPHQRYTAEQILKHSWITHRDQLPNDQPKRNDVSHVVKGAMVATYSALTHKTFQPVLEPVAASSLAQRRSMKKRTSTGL
# protocol_details: KINOMEscan competition binding
# run_parameters: compound 10.0 µM
result_type: kinase still bound, per cent of control (%)
# output: bare number, implied unit %

I am curious: what kinase still bound, per cent of control value has been reported for CCN1CCN(Cc2ccc(NC(=O)c3ccc(C)c(/C=C/c4cnc5[nH]ccc5c4OC)c3)cc2C(F)(F)F)CC1 ?
42

I am curious: what kinase still bound, per cent of control value has been reported for CC(=O)c1c(C)c2cnc(Nc3ccc(N4CCNCC4)cn3)nc2n(C2CCCC2)c1=O ?
20

I am curious: what kinase still bound, per cent of control value has been reported for COc1cc2c(Nc3ccc(NC(=O)c4ccccc4)cc3)ncnc2cc1OCCCN1CCOCC1 ?
68

I am curious: what kinase still bound, per cent of control value has been reported for N#Cc1cc(-c2ccnc(Nc3ccc(-n4cnc(-c5cccnc5)n4)cc3)n2)cc(N2CCOCC2)c1 ?
60

I am curious: what kinase still bound, per cent of control value has been reported for CCN(CCO)CCCOc1ccc2c(Nc3cc(CC(=O)Nc4cccc(F)c4)[nH]n3)ncnc2c1 ?
74

I am curious: what kinase still bound, per cent of control value has been reported for CCOc1cc(N2CCC(O)CC2)ccc1Nc1ncc2c(n1)N(C)c1ccccc1C(=O)N2C ?
100

I am curious: what kinase still bound, per cent of control value has been reported for COc1cc(C)c(Sc2cnc(NC(=O)c3ccc(CNC(C)C(C)C)cc3)s2)cc1C(=O)N1CCN(C(C)=O)CC1 (stereo not drawn) ?
100

I am curious: what kinase still bound, per cent of control value has been reported for CNC(=O)Nc1ccc(-c2nc(N3CC4CCC(C3)O4)c3cnn(C4CCC5(CC4)OCCO5)c3n2)cc1 ?
87

I am curious: what kinase still bound, per cent of control value has been reported for COc1cc2ncnc(Nc3cccc(Cl)c3)c2cc1OC ?
46

I am curious: what kinase still bound, per cent of control value has been reported for CC1=C(C(=O)Nc2cc3cn[nH]c3cc2F)C(c2ccc(C(F)(F)F)cc2)CC(=O)N1 (stereo not drawn) ?
42

I am curious: what kinase still bound, per cent of control value has been reported for C=CC(=O)Nc1ccc(C(=O)c2sc(Nc3ccc(N4CCN(C)CC4)cc3OC)nc2N)cc1 ?
50

I am curious: what kinase still bound, per cent of control value has been reported for CCc1nc(-c2cccc(C)c2)c(-c2ccnc(NC(=O)c3ccccc3)c2)s1 ?
94

I am curious: what kinase still bound, per cent of control value has been reported for N#C/C(=C1/Nc2ccccc2S1)c1ccnc(NCCc2cccnc2)n1 ?
28

I am curious: what kinase still bound, per cent of control value has been reported for COc1ccc(N(C(=O)Oc2cc(C(=O)Nc3cccc(C(F)(F)F)c3)ccc2C)c2ccnc(Nc3ccc(N4CCN(C)CC4)cc3)n2)c(OC)c1 ?
100

I am curious: what kinase still bound, per cent of control value has been reported for COc1cc(N2CCC(C(N)=O)CC2)ccc1Nc1nc(N)c(Cl)c(Nc2ccccc2S(=O)(=O)C(C)C)n1 ?
100

I am curious: what kinase still bound, per cent of control value has been reported for O=c1[nH]c2ccccc2n1C1CCN(Cc2ccc(-c3nc4cc5[nH]cnc5cc4nc3-c3ccccc3)cc2)CC1 ?
75

I am curious: what kinase still bound, per cent of control value has been reported for CCCS(=O)(=O)Nc1ccc(F)c(C(=O)c2c[nH]c3ncc(Cl)cc23)c1F ?
80

I am curious: what kinase still bound, per cent of control value has been reported for Cc1cn(-c2cc(C(=O)Nc3ccc(C)c(NC(=O)c4ccno4)c3)cc(C(F)(F)F)c2)cn1 ?
100
